- MEASURED TARGET: T1, human CD19 exon1-3-his protein (human, UniProt P15391 20-186, limits assumed)
- T1 construct: made in HEK293E cells; also called membrane-distal end; not shown: His tag
- T1 sequence (looked up): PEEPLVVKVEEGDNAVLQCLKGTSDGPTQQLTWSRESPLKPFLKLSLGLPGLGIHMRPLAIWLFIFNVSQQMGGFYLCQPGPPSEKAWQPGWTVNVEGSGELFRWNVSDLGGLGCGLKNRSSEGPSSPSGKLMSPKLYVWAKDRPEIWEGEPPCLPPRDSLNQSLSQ
- ASSAY PROTOCOL: ELISA, coated at 2 ug/mL
- Method: Human CD19-his protein (purchased from ACROBiosystems, catalog number: CD9-H52H2) was diluted with PBS to a final concentration of 4 μg/mL, and then added to a 96-well ELISA plate at 100 μl/well. […] The OD450 nm values were read by an ELISA microplate reader (Multimode Plate Reader, EnSight, purchased from Perkin Elmer). […]
QUANTITY NAME: binding result

F4.125.12 (antibody, human IgG1, V domains shown, human-murine chimeric antibody, human IgG1) VH: EVKLVESGGGLVQPGGSLKLSCAASGFTFSTYTMSWVRQTPEKRLEWVAFISSGGGHINYPDTVKGRFTISRDNAKNTLYLQMSSLKSEDTAMYYCARHSYWFFDVWGAGTTVTVSS VL: DVQITQSPSYLAASPGETITINCRASKNIDTYLAWYQEKPGKTNKLLIYSGSTLQSGIPSRFRGGGSGTDFTLTICSLEPEDFAMYYCQQHNEYPLTFGAGTKLELK | no binding
F3.64.4 (antibody, human IgG1, V domains shown, human-murine chimeric antibody, human IgG1) VH: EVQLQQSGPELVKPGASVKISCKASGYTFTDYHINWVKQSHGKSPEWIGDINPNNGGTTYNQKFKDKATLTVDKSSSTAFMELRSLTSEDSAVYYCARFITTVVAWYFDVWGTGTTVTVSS VL: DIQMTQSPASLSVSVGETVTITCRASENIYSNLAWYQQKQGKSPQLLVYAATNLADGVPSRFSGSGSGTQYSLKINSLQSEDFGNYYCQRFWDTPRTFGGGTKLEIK | no binding
F3.5.1 (antibody, human IgG1, V domains shown, human-murine chimeric antibody, human IgG1) VH: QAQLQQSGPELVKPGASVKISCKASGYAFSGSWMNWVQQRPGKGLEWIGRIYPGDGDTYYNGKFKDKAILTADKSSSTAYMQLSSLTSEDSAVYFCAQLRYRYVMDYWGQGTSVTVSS VL: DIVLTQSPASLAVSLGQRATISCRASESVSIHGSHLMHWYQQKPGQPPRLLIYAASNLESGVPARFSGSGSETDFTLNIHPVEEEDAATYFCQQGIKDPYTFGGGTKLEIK | no binding
